Every entry's value here was drawn from patent US20110152267A1.

Tested on: OVCAR-8 ovarian adenocarcinoma cell line
assay-details: DIMSCAN cytotoxicity, fenretinide + L-threo-sphinganines 3:1 (Example B15)
Type: cell-based, human
Set-up: key: Chou-Talalay CI: <0.9 synergy, 0.9-1.1 additive, >1.1 antagonism
details: 4-HPR 9 μM + L-threo-sphinganine 3 μM, 96 h
The entries below come with measured CI (Combination Index) values attached.
result-type: CI (Combination Index)

| compound | result-type | measured-value |
| --- | --- | --- |
| CCCCCCCCCCCCCCCC[C@H](O)[C@@H](N)CO [C19, (2S,3S)-2-amino-1,3-nonadecanediol] | CI (Combination Index) | 0.1 |
| CCCCCCCCCCC[C@H](O)[C@@H](N)CO [C14] | CI (Combination Index) | 0.1 |
| CCCCCCCCCCCCCCC[C@H](O)[C@@H](N)CO [C18, (2S,3S)-2-amino-1,3-octadecanediol, reference compound] | CI (Combination Index) | 0.5 |
| CCCCCCCCCCCCCCCCCC[C@H](O)[C@@H](N)CO [C21] | CI (Combination Index) | 0.2 |

====

Tested on: PANC-1 pancreatic adenocarcinoma cell line
assay-details: DIMSCAN cytotoxicity, fenretinide + L-threo-sphinganines 3:1 (Example B18)
Type: cell-based, human
details: 4-HPR 3 μM + L-threo-sphinganine 1 μM
Experimental: Cytotoxicity Assay—Once again, cytotoxicity is determined using the DIMSCAN assay system (R. Proffitt et al., Cytometry 24, 204-213 (1996); T. Frgala et al., Mol Cancer Ther. 6:886-97, 2007). The system employs digital imaging microscopy to quantify viable cells, which selectively accumulate fluorescein diacetate to become brightly fluorescent. […] Measured fluorescence is directly proportionate to the number of viable cells. […]
The entries below come with measured Fa values attached.
result-type: Fa

| molecule | tested-target | measured-value |
| --- | --- | --- |
| CCCCCCCCCCCCCCC[C@H](O)[C@@H](N)CO [C18, (2S,3S)-2-amino-1,3-octadecanediol, reference compound] | PANC-1 pancreatic adenocarcinoma cell line | 0.336 |
| CCCCCCCCCCCCCC[C@H](O)[C@@H](N)CO | PANC-1 pancreatic adenocarcinoma cell line | 0.311 |
| CCCCCCCCCCCC[C@H](O)[C@@H](N)CO | PANC-1 pancreatic adenocarcinoma cell line | 0.205 |
| CCCCCCCCCCCCCCCC[C@H](O)[C@@H](N)CO | PANC-1 pancreatic adenocarcinoma cell line | 0.321 |
| CCCCCCCCCCCCCCCCCC[C@H](O)[C@@H](N)CO | PANC-1 pancreatic adenocarcinoma cell line | 0.239 |
| CCCCCCCCCCCCCCCCC[C@H](O)[C@@H](N)CO | PANC-1 pancreatic adenocarcinoma cell line | 0.291 |
| CCCCCCCCCCC[C@H](O)[C@@H](N)CO | PANC-1 pancreatic adenocarcinoma cell line | 0.176 |
| CCCCCCCCC[C@H](O)[C@@H](N)CO | PANC-1 pancreatic adenocarcinoma cell line | 0.119 |

====

Test system: OE-33 esophageal adenocarcinoma cell line
assay-details: DIMSCAN cytotoxicity, fenretinide + L-threo-sphinganines 3:1 (Example B19)
Format: cell-based, human
details: 4-HPR 6 μM + L-threo-sphinganine 2 μM

| compound | Fa |
| --- | --- |
| CCCCCCCCCCCCCCCC[C@H](O)[C@@H](N)CO | 0.951 |
| CCCCCCCCCCCCCC[C@H](O)[C@@H](N)CO | 0.945 |
| CCCCCCCCCCCCCCCCC[C@H](O)[C@@H](N)CO | 0.883 |
| CCCCCCCCC[C@H](O)[C@@H](N)CO | 0.758 |

====

Tested on: HT-29 colorectal adenocarcinoma cell line
assay-details: DIMSCAN cytotoxicity, fenretinide + L-threo-sphinganines 3:1 (Example B10)
Format: cell-based, human
details: 4-HPR 6 μM + L-threo-sphinganine 2 μM, 96 h
The entries below come with measured Fa (fraction affected) values attached.

| compound | tested-target | Fa (fraction affected) |
| --- | --- | --- |
| CCCCCCCCCCCCCCC[C@H](O)[C@@H](N)CO [C18, (2S,3S)-2-amino-1,3-octadecanediol, reference compound] | HT-29 colorectal adenocarcinoma cell line | 0.983 |
| CCCCCCCCCCCCCC[C@H](O)[C@@H](N)CO | HT-29 colorectal adenocarcinoma cell line | 0.974 |
| CCCCCCCCCCCCCCCCC[C@H](O)[C@@H](N)CO | HT-29 colorectal adenocarcinoma cell line | 0.971 |
| CCCCCCCCCCCCCCCC[C@H](O)[C@@H](N)CO | HT-29 colorectal adenocarcinoma cell line | 0.965 |
| CCCCCCCCCCCCCCCCCC[C@H](O)[C@@H](N)CO | HT-29 colorectal adenocarcinoma cell line | 0.857 |
| CCCCCCCCCCC[C@H](O)[C@@H](N)CO | HT-29 colorectal adenocarcinoma cell line | 0.822 |
| CCCCCCCCC[C@H](O)[C@@H](N)CO | HT-29 colorectal adenocarcinoma cell line | 0.951 |
| CCCCCCCCCCCC[C@H](O)[C@@H](N)CO | HT-29 colorectal adenocarcinoma cell line | 0.859 |

====

The entries below come with measured CI values attached.
Test system: PC-3 prostate adenocarcinoma cell line
assay-details: DIMSCAN cytotoxicity, fenretinide + L-threo-sphinganines 3:1 (Example B17)
Assay type: cell-based, human
details: 4-HPR 1.5 μM + L-threo-sphinganine 0.5 μM
result-type: CI

| compound | measured-value |
| --- | --- |
| CCCCCCCCCCC[C@H](O)[C@@H](N)CO | 0.7 |
| CCCCCCCCCCCCCCC[C@H](O)[C@@H](N)CO [C18, (2S,3S)-2-amino-1,3-octadecanediol, reference compound] | 1.1 |
| CCCCCCCCCCCCCCCCCC[C@H](O)[C@@H](N)CO | 1.7 |
| CCCCCCCCCCCC[C@H](O)[C@@H](N)CO | 0.6 |
| CCCCCCCCC[C@H](O)[C@@H](N)CO | 0.5 |

====

System: SJ-GBM2 Glioblastoma multiforme cell line
assay-details: DIMSCAN cytotoxicity, fenretinide + L-threo-sphinganines 3:1 (Example B7)
Type: cell-based, human
details: 4-HPR 9 μM + L-threo-sphinganine 3 μM, 96 h
result-type: Fa (fraction affected)

| molecule | measured-value |
| --- | --- |
| CCCCCCCCCCCCCCCC[C@H](O)[C@@H](N)CO [C19, (2S,3S)-2-amino-1,3-nonadecanediol] | 0.997 |
| CCCCCCCCC[C@H](O)[C@@H](N)CO [C12] | 0.968 |
| CCCCCCCCCCCC[C@H](O)[C@@H](N)CO [C15] | 0.953 |
| CCCCCCCCCCCCCCCCCC[C@H](O)[C@@H](N)CO [C21] | 0.996 |
| CCCCCCCCCCCCCCC[C@H](O)[C@@H](N)CO [C18, (2S,3S)-2-amino-1,3-octadecanediol, reference compound] | 0.999 |

====

The entries below come with measured Fa values attached.
Tested on: COG-LL-317 acute lymphoblastic leukemia cell line
assay-details: DIMSCAN cytotoxicity, fenretinide + L-threo-sphinganines 3:1 (Example B20)
Format: cell-based, human
details: 4-HPR 6 μM + L-threo-sphinganine 2 μM
result-type: Fa

| compound | measured-value |
| --- | --- |
| CCCCCCCCCCCCCC[C@H](O)[C@@H](N)CO | 0.9993 |
| CCCCCCCCCCCCCCCCC[C@H](O)[C@@H](N)CO | 1 |
| CCCCCCCCCCCCCCCC[C@H](O)[C@@H](N)CO | 0.9999 |
| CCCCCCCCCCCCCCC[C@H](O)[C@@H](N)CO [C18, (2S,3S)-2-amino-1,3-octadecanediol, reference compound] | 0.9994 |

====

Test system: A-172 Glioblastoma multiforme cell line
assay-details: DIMSCAN cytotoxicity, fenretinide + L-threo-sphinganines 3:1 (Example B4)
Type: cell-based, human
Parameters: key: Chou-Talalay CI: <0.9 synergy, 0.9-1.1 additive, >1.1 antagonism
details: 4-HPR 1.5 μM + L-threo-sphinganine 0.5 μM, 96 h
Experimental: Cytotoxicity Assay—Once again, cytotoxicity is determined using the DIMSCAN assay system (R. Proffitt et al., Cytometry 24, 204-213 (1996); T. Frgala et al., Mol Cancer Ther. 6:886-97, 2007). The system employs digital imaging microscopy to quantify viable cells, which selectively accumulate fluorescein diacetate to become brightly fluorescent. […] Measured fluorescence is directly proportionate to the number of viable cells. […]
I'd appreciate it if you marked entries y when CI (Combination Index) is lower than 20 and n when it is not.

| compound | qualitative-label |
| --- | --- |
| CCCCCCCCCCC[C@H](O)[C@@H](N)CO | n |
| CCCCCCCCCCCCCCCCC[C@H](O)[C@@H](N)CO | y |
| CCCCCCCCCCCCCCCCCC[C@H](O)[C@@H](N)CO | y |
| CCCCCCCCCCCCCCCC[C@H](O)[C@@H](N)CO | n |
| CCCCCCCCCCCCCCC[C@H](O)[C@@H](N)CO [C18, (2S,3S)-2-amino-1,3-octadecanediol, reference compound] | y |
| CCCCCCCCC[C@H](O)[C@@H](N)CO | y |
| CCCCCCCCCCCCCC[C@H](O)[C@@H](N)CO | y |
| CCCCCCCCCCCC[C@H](O)[C@@H](N)CO | n |
